B1: TEKT4 (parent)
chain: LREKLLEAEQSLRNLEDIHMSLEK

# Variants of: B1
# test-method-notes: protein stability index of a GFP-peptide fusion (GPS, HEK-293T) (PSI 1-6); higher = more stable;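 note: lentivirally expressed fusions sorted by FACS into six bins by GFP to DsRed ratio, PSI derived from sequencing read proportions per bin multiplied by bin number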
# experimental-setup: c terminus: a fixed tail appended
assay-readout: protein stability index

Solved entries:
[
  {
    "sequence-text": "LREKLLEAEQSLRCLEDIHMSLEK [N14C]",
    "reported": 2.26
  },
  {
    "sequence-text": "LRCKLLEAEQSLRNLEDIHMSLEK [E3C]",
    "reported": 1.96
  },
  {
    "sequence-text": "LREKLLEAEQSLRNLEDIHMSLHK [E23H]",
    "reported": 2.21
  },
  {
    "sequence-text": "AREKLLEAEQSLRNLEDIHMSLEK [L1A]",
    "reported": 3.67
  },
  {
    "sequence-text": "LREKLLEAEQSLRNLEDILMSLEK [H19L]",
    "reported": 1.96
  }
]

For each entry beneath this line, provide reported protein stability index.
1. LGEKLLEAEQSLRNLEDIHMSLEK [R2G]
2. LREKLLEWEQSLRNLEDIHMSLEK [A8W]
3. LREKLLEAEISLRNLEDIHMSLEK [Q10I]
4. LREKLLEAEQSLRNLEDIHMMLEK [S21M]

Reply |
2.34
1.8
1.34
1.75

Give measured protein stability index for every item shown.
1. LREKLLEAEQSLRNHEDIHMSLEK [L15H]
2. LREKLLEAEQWLRNLEDIHMSLEK [S11W]

Reply |
1. 3.22
2. 1.48
